- Tested On: Human AhR (Homo sapiens, UniProt P35869)
- Construct: expressed in transfected cells
- Sequence (P35869 11-848): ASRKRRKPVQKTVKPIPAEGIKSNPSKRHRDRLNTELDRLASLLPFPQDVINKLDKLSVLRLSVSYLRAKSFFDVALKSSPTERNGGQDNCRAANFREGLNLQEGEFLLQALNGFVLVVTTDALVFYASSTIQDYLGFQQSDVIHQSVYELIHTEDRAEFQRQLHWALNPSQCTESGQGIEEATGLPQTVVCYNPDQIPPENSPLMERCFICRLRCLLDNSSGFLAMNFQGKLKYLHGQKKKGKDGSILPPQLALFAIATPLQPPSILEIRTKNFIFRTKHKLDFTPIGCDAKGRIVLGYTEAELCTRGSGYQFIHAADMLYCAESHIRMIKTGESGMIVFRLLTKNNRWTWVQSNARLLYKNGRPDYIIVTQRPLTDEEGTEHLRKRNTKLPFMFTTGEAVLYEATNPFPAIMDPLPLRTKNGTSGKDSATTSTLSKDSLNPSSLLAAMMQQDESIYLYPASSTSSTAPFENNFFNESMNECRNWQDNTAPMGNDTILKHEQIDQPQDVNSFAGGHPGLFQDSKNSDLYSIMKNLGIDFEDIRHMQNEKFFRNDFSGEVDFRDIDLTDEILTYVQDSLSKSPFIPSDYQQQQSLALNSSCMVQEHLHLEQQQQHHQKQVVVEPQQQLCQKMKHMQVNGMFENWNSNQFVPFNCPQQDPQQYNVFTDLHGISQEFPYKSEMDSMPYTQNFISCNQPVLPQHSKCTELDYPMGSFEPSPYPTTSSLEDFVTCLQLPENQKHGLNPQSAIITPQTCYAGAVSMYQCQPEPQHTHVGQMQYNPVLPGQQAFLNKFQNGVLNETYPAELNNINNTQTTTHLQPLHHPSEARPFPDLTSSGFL
- Protocol Text: hAHR Nuclear Translocation Assay
- Assay type: cell-based
- Condition: AhR-EGFP nuclear translocation in Jump-In T-REx HEK293 cells, 45 minutes incubation; class symbols; read-out: Rel EC50
Quantity Measured: EC50

Reference set, count: 2
CC(C)C1CCc2c1cc(C(=O)Nc1ncc(F)cn1)c1nncn21 (single isomer, unassigned) [Example 58] :: 1 to 10 nM
Cc1nnc2c(C(=O)Nc3ncc(F)cn3)cc3c(n12)CCC3C (single isomer, unassigned) [Example 53] :: > 50 nM

**Query** EC50 for CC1CCc2c1cc(C(=O)Nc1ccn(C)n1)c1nncn21 (single isomer, unassigned) ?
**Result** 10 to 50 nM

**Query** Same question, CC1CCc2c1cc(C(=O)Nc1nccs1)c1nncn21 (single isomer, unassigned) [Example 24] this time
**Result** 1 to 10 nM

**Query** Same question, CC1CCc2c1cc(C(=O)Nc1ccno1)c1nncn21 (single isomer, unassigned) [Example 45] this time
**Result** 10 to 50 nM

**Query** Same question, CC1CCc2c1cc(C(=O)Nc1ncc(C(F)(F)F)cn1)c1nncn21 (single isomer, unassigned) [Example 27] this time
**Result** 1 to 10 nM

**Query** Same question, CC1CCc2c1cc(C(=O)Nc1ncco1)c1nncn21 (single isomer, unassigned) [Example 31] this time
**Result** 10 to 50 nM

**Query** Same question, O=C(Nc1ncc(F)cn1)c1cc2c(n3cnnc13)CCC2C1CCC1 (single isomer, unassigned) [Example 65] this time
**Result** 1 to 10 nM

**Query** Same question, CC1CCc2c1cc(C(=O)Nc1ccc(F)cn1)c1nncn21 (single isomer, unassigned) [Example 42] this time
**Result** 1 to 10 nM

**Query** Same question, CC1CCc2c1cc(C(=O)Nc1ccc(F)cn1)c1nncn21 (single isomer, unassigned) [Example 43] this time
**Result** 1 to 10 nM

**Query** Same question, Cc1cnc(NC(=O)c2cc3c(n4cnnc24)CCC3C)nc1 (single isomer, unassigned) [Example 29] this time
**Result** 10 to 50 nM

**Query** Same question, Cc1nnc2c(C(=O)Nc3ncc(F)cn3)cc3c(n12)CCC3C (single isomer, unassigned) [Example 52] this time
**Result** > 50 nM

**Query** Same question, CC1CCc2c1cc(C(=O)Nc1ccns1)c1nncn21 (single isomer, unassigned) [Example 39] this time
**Result** 1 to 10 nM

**Query** Same question, O=C(Nc1ncc(F)cn1)c1cc2c(n3cnnc13)CCC2C1CC1 (single isomer, unassigned) [Example 66] this time
**Result** 1 to 10 nM

**Query** Same question, CC(C)c1nnc2c(C(=O)Nc3ncc(F)cn3)cc3c(n12)CCC3C (single isomer, unassigned) [Example 54] this time
**Result** > 50 nM
